B1: Far upstream element-binding protein 3, residues 75 to 150; numbered along this chain, Q96I24 (parent)
chain: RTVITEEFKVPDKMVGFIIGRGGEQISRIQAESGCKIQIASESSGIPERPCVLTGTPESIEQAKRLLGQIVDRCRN

Variants of: B1
Method summary: abundance fitness (aPCA) (normalised: wild type 0, dead -1); higher = more abundant; growth selection in yeast, the domain comes from the species named
Reported conditions: Homo sapiens
Think of -0.09 as a floor: if abundance fitness stands on it or above, it is met; beneath it, not met.

The following variants have reported results that may help.
- Mutation annotation: "G16Q"
  Group: "met"
- Mutation annotation: "Q25L"
  Group: "not met"
- Mutation annotation: "E24R"
  Group: "met"
- Mutation annotation: "I26G"
  Group: "not met"
- Mutation annotation: "E58R"
  Group: "met"
- Mutation annotation: "V71K"
  Group: "not met"
- Mutation annotation: "G45M"
  Group: "not met"
- Mutation annotation: "Q62K"
  Group: "met"

Textbook exercise: given the entry `E42D` , state whether its abundance fitness is greater than or equal to -0.09.
met

Textbook exercise: given the entry `L53M` , state whether its abundance fitness is greater than or equal to -0.09.
not met
